Data credit: ChEMBL document CHEMBL5154926

test-description: Stability in human liver microsomes assessed as intrinsic clearance at 1.5 uM measured upto 90 mins in presence of NADPH by LC/MS analysis
Format: ADME, Microsome
condition-parameters: read-out: CLH
quantity-kind: CLint scaled at 1.5 µM (mL/min/kg)
Numbers only, in mL/min/kg.

# line-notation, CLint scaled at 1.5 µM [mL/min/kg]
rows = [
    ("O=c1nc2n(c3c1CN(Cc1ccccc1)CC3)CCN2Cc1ccc(F)c(Br)c1", 134),
    ("Cc1ccccc1CN1C(=O)C2=C(CCN(Cc3ccccc3)C2)N2CCN=C12", 187),
]

Continue with the molecule presented below.
Q: What value of measured CLint scaled at 1.5 µM is listed for O=C(c1ccc(F)cc1)C1CCN(CCn2c(=O)[nH]c3ccccc3c2=O)CC1 ?
Ans: 51.1

----------
test-description: Cmax in Sprague-Dawley rat plasma at 15 mg/kg, po after 0.25 to 24 hrs by LC-MS analysis
Type: ADME, organism-based
Set-up: time lower 0.25 hrs, dose 15 mg/kg, time upper 24 hrs, route po
quantity-kind: Cmax (ng/mL)
Numbers only, in ng/mL.

# line-notation, Cmax (ng/mL)
data = [
    ("Cc1ccccc1CN1C(=O)C2=C(CCN(Cc3ccccc3)C2)N2CCN=C12.Cl.Cl.O", 566),
]

Now for another entry.
Q: So what does the record say about Cmax for Cl.Cl.O.O=c1nc2n(c3c1CN(Cc1ccccc1)CC3)CCN2Cc1ccc(F)c(Br)c1 ?
Ans: 2790

----------
assayed-target: ATP-dependent Clp protease proteolytic subunit, mitochondrial (Homo sapiens, UniProt Q16740)
Sequence (Q16740 whole entry, the tested form may be a part): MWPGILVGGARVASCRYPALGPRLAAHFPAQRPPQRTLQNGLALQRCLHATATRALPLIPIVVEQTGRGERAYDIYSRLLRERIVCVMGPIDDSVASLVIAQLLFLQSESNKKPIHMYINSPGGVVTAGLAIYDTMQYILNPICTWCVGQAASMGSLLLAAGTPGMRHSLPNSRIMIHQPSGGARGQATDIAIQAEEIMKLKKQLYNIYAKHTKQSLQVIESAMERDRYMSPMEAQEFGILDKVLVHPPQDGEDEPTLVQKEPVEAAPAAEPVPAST
test-description: Agonist activity at human CLpP (57 to 277 amino acids) expressed in Escherichia coli using fluorogenic peptide AC-WLA-AMC as substrate incubated for 10 mins by fluorescence based assay
quantity-kind: pEC50
Give bare numbers, as −log10 of the molar value.

Parameters: items (list). Returns: pEC50 for each item.
1. O=c1nc2n(c3c1CN(Cc1ccccc1)CC3)CCN2CC1CCCCC1
2. Cc1ccccc1CN1CCn2c1nc(=O)c1c2C(F)(F)CN(Cc2ccccc2)C1
3. O=c1nc2n(c3c1CN(Cc1ccccc1)CC3)CCN2Cc1ccc(F)c(F)c1
4. O=c1nc2n(c3c1CN(Cc1ccccc1)CC3)CCN2Cc1ccc(Br)cc1
5. Cc1ccccc1CN1CCn2c1nc(=O)c1c2CCN(Cc2ccccc2C#N)C1

Ans:
6.89
6.30
6.52
6.40
6.18

----------
assayed-target: ATP-dependent Clp protease proteolytic subunit, mitochondrial (Homo sapiens, UniProt Q16740)
test-description: Agonist activity at human CLpP (57 to 277 amino acids) expressed in Escherichia coli using fluorogenic peptide AC-WLA-AMC as substrate incubated for 10 mins by fluorescence based assay
pEC50: −log10 of the molar value.
Would you kindly list pEC50 for each of these compounds?

Below: 2 compounds and their reported pEC50.
# line-notation, quantity-kind, result
data = [
    ("Cc1ccccc1CN1CCn2c1nc(=O)c1c2CCN(C(=O)Cc2ccccc2)C1", "pEC50", "< 5.00"),
    ("Cc1ccccc1CN1CCn2c1nc(=O)c1c2CCN(CC2CC2)C1", "pEC50", "< 5.00"),
]

API: the following record is the query input.
Q: Please look up its pEC50: Cc1ccccc1CN1CCn2c1nc(=O)c1c2CCN(CC(C)C)C1
Ans: < 5.00
